Test system: P388 leukemia ip, CD2F1 mice, survival T/C
Assay: NCI In Vivo Anticancer Drug Screen. Data for tumor model P388 Leukemia (intraperitoneal) in CD2F1 (CDF1) mice
Details: endpoint: median survival time; dose: 400.0 mg/kg/injection; schedule: Q04DX002 (ip); vehicle: Klucel (hydroxypropylcellulose) (HPC); higher = longer survival
Inconclusive results and toxic doses are left out.
OBSERVABLE: T/C

[
  {
    "MOLECULE": "COc1ccc(C2=C(Cl)C(=O)N(c3ccc(Cl)cc3)C(=O)C2(Cl)Cl)cc1",
    "OBSERVABLE": "T/C",
    "OBSERVED_MEASUREMENT": "97 % of control"
  },
  {
    "MOLECULE": "COc1ccc(N2CCN(/C=C3\\Cc4ccc(F)cc4C3=O)CC2)cc1",
    "OBSERVABLE": "T/C",
    "OBSERVED_MEASUREMENT": "95 % of control"
  },
  {
    "MOLECULE": "[N-]=[N+]=Nc1ccccc1C(=O)Nc1ccccc1C(N)=O",
    "OBSERVABLE": "T/C",
    "OBSERVED_MEASUREMENT": "104 % of control"
  },
  {
    "MOLECULE": "CSC(=S)n1nc(C)c(N=Nc2ccc(Br)cc2)c1C",
    "OBSERVABLE": "T/C",
    "OBSERVED_MEASUREMENT": "103 % of control"
  }
]

Input line: Fill: T/C (P388 leukemia ip, CD2F1 mice, survival T/C) for this compound "Cc1ccc(-n2c(-c3ccc(-n4c(C)nc5ccc(Br)cc5c4=O)cc3)n[nH]c2=S)cc1"
Output line: 100 % of control

====

System: P388 leukemia ip, CD2F1 mice, survival T/C
Assay: NCI In Vivo Anticancer Drug Screen. Data for tumor model P388 Leukemia (intraperitoneal) in CD2F1 (CDF1) mice
Details: endpoint: median survival time; dose: 100.0 mg/kg/injection; schedule: Q01DX009 (ip); vehicle: other; higher = longer survival
Toxic doses and inconclusive results are not listed.
Here the recorded T/C is given for each entry.

Illustrative cases are given below, each with its answer.
[
  {
    "MOLECULE": "COc1cc(Br)cc(C=O)c1OC",
    "OBSERVABLE": "T/C",
    "OBSERVED_MEASUREMENT": "98 % of control"
  },
  {
    "MOLECULE": "Cc1c(Cl)cc[n+]([O-])c1C",
    "OBSERVABLE": "T/C",
    "OBSERVED_MEASUREMENT": "108 % of control"
  }
]

Moving on to another compound below.
Input line: Output reported T/C of the compound "COC(=O)/C=N/Nc1ccc(C)cc1" on P388 leukemia ip, CD2F1 mice, survival T/C.
Output line: 96 % of control

====

System: P388 leukemia ip, CD2F1 mice, survival T/C
Experiment: NCI In Vivo Anticancer Drug Screen. Data for tumor model P388 Leukemia (intraperitoneal) in CD2F1 (CDF1) mice
Details: endpoint: median survival time; dose: 25.0 mg/kg/injection; schedule: Q01DX009 (ip); vehicle: saline with Tween-80
Inconclusive results and toxic doses are left out. Rule for the calls: active = survival T/C of 150% or more; inactive = T/C below 125% in these data.
Answer with one of the outcomes given here: active, inactive

The examples below pair each entry with its known result.
[
  {
    "MOLECULE": "CCCCCCCCCCCCCCCCN(C)CCO",
    "ASSIGNED_CATEGORY": "inactive"
  },
  {
    "MOLECULE": "NC(N)=N/N=C/c1ccc(Cl)c(Cl)c1",
    "ASSIGNED_CATEGORY": "inactive"
  },
  {
    "MOLECULE": "NC(=S)N/N=C/c1cccnc1",
    "ASSIGNED_CATEGORY": "inactive"
  }
]

Input line: Could you check what this test reported for CCN(CCO)CC(C)Nc1ccc([N+](=O)[O-])c2sc3ccccc3c(=O)c12 (stereo unspecified) ?
Output line: active

Input line: Just curious, what result did OC(CC1CCCCN1)c1cc(C(F)(F)F)nc2c(C(F)(F)F)cccc12 (stereo unspecified) get here?
Output line: inactive

Input line: Recorded test outcome, item "Clc1ccc(NCc2ccc(CNc3ccc(Cl)cc3)cc2)cc1"
Output line: inactive
